- TESTED_SYSTEM: T1, Peptide G (rat PAR-2), N-terminal biotinylated (Rat (Rattus norvegicus), N-terminal biotin via G4S linker)
- T1 construct: also called Peptide G N-Term
- T1 peptide: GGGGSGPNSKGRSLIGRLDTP
- EXPERIMENTAL_PROTOCOL: peptide ELISA titration
Below is a list of entries, each paired with its recorded pEC50 value.
# pEC50 = -log10(concentration in molar units)

Would you please look over these solved cases?
• H4H580P (antibody, human IgG4, V domains shown, also called H1H580P variable regions) VH: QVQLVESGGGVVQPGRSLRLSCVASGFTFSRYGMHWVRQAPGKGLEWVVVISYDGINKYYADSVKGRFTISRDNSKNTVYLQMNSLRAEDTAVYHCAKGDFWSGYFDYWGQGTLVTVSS VL: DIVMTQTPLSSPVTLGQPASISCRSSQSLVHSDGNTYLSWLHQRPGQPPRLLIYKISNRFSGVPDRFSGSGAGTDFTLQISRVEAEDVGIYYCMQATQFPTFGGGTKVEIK = 9.85
• H4H578P (antibody, human IgG4, V domains shown, also called H1H578P variable regions) VH: QVQLVESGGGVVQPGMSLRLSCAASGFTFRRYGMHWVRQAPGKGLEWVAVIWYDGSNKYYVDSVKGRFTISRDNSKNTLYLQMNSLRAEDTAVYYCASEITVGDWFDPWGQGTLVTVSS VL: AIQMTQSPSSLSASVGDRVTITCRASQGIRNDLGWYQQKPGKAPKLLIYAASSLHSGVPSRFSGSGSGTDFTLTISSLQPEDFATYYCLQDFNYPLTFGGGTKVEIK = 10.09

Lab note: next binder to report on.
What does the data say about its pEC50? Entry: H4H584P (antibody, human IgG4, V domains shown, also called H1H584P variable regions) VH: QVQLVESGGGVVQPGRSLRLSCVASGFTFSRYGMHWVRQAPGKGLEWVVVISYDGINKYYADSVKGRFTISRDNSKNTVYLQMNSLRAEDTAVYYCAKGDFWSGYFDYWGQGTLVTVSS VL: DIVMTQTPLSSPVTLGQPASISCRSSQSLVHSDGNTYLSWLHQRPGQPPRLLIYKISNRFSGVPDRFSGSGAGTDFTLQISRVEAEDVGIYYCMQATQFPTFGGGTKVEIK 10.92
